experimental_target: FGFR1 (UniProt P11362)
Sequence (P11362 whole entry, looked up): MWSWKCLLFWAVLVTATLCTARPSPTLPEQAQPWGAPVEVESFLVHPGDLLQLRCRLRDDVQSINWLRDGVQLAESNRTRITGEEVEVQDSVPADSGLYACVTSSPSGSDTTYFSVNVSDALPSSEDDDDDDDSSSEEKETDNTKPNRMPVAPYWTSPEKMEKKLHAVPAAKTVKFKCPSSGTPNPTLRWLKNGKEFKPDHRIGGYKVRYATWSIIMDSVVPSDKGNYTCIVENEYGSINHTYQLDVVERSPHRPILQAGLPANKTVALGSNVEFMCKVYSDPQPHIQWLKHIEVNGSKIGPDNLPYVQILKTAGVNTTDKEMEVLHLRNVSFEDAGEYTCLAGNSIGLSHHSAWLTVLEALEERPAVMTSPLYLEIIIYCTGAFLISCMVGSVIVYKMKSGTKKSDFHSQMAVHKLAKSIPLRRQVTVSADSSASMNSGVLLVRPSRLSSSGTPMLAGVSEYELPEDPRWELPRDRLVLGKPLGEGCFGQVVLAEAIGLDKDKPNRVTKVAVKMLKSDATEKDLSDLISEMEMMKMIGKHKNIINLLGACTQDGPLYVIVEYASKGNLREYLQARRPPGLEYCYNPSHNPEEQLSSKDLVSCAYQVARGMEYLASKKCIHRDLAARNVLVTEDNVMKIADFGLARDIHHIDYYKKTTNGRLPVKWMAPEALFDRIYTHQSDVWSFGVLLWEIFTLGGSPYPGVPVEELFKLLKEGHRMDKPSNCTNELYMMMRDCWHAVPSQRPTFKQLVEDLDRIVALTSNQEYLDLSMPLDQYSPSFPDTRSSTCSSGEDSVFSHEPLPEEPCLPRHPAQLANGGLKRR
procedure_details: phosphorylation enrichment, bacterial display (enrichment ratio); higher = better substrate or ligand; peptides without Tyr show the background;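 also: 11-residue human phosphosite peptides and single-mutation variants displayed on the E. coli surface, counted by deep sequencing, each peptide's frequency after selection divided by its frequency in the unselected input library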;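 also: frequency after pTyr selection over input frequency; kinase dosed for 20-30% of maximal phosphorylation in three min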
phosphorylation enrichment below 0.6 gives F; phosphorylation enrichment at or above it gives T.

Task: Item STLEVYRCHPP [IL21R_Y317_S318R] with phosphorylation enrichment of 0.6 or above?
Result: F

Task: Could you verify whether the entry EVASVYESYQP [MAVS_Y92_Q93E] shows phosphorylation enrichment of no less than 0.6?
Result: F

Task: Decide: phosphorylation enrichment of GSRGKYSSGFR [ATM_Y332] >= 0.6?
Result: T

Task: Check the entry QDEHGYIFRCF [HSPB1_Y133_S135F] : does phosphorylation enrichment equal or exceed 0.6?
Result: T

Task: Textbook exercise: given the entry SAEEDYKADAK [KCNT1_Y876_M877K] , state whether its phosphorylation enrichment is greater than or equal to 0.6.
Result: F

Task: Dear colleague, could you confirm whether EMFNPYYGLFE [NEDD4L_Y679] has phosphorylation enrichment at or above 0.6?
Result: T

Task: Evaluate NTEGGYRCICA [CRELD1_Y328] : phosphorylation enrichment at minimum 0.6?
Result: T

Task: Identify whether the reported phosphorylation enrichment of the following sequence is 0.6 or greater: NYCPGYNNFYN [USH2A_Y467_R464C]
Result: T

Task: Item RMDGKYACSFT [FLNB_Y704_T703K_YF] with phosphorylation enrichment of 0.6 or above?
Result: T

Task: Threshold query (phosphorylation enrichment >= 0.6) on PSQRRYLYYYS [PTEN_Y174_V175L]
Result: T

Task: Confirm if phosphorylation enrichment reported for the sequence DLHGIYQKLVI is 0.6 or above.
Result: T

Task: Please tell me: is the sequence LERFIYNREEF [HLA-DPB1_Y59_F64Y_YF] at or over 0.6 in terms of phosphorylation enrichment?
Result: T

Task: Quick check: does LSDVIYVILRK [PMP22_Y153_G150D] have phosphorylation enrichment greater than or equal to 0.6?
Result: F

Task: Determine whether this sequence has phosphorylation enrichment no lower than 0.6: LNWIYYKDQTG [RS1_Y166]
Result: T

Task: Decide: phosphorylation enrichment of WSFNLYDINKD [KCNIP3_Y174_A170S] >= 0.6?
Result: F

Task: Answer whether phosphorylation enrichment of CTTIHYNYMCD [TP53_Y234_N239D] is greater than or equal to 0.6.
Result: F

Task: Does the sequence LMVFEYMRHGN [NTRK1_Y591_D596N] have recorded phosphorylation enrichment that is 0.6 or more?
Result: F

Task: Dear colleague, could you confirm whether RRVPVYGGRGA [QDPR_Y16_L14P] has phosphorylation enrichment at or above 0.6?
Result: T

Task: // inclusive: phosphorylation enrichment at least 0.6? input: EVLKNYNQQKD [GOLGA4_Y1551]
Result: F

Task: In plain terms: is recorded phosphorylation enrichment at least 0.6 for VTSLKYSTPPF [BRIP1_Y916_S919P_YF] ?
Result: F

Task: Confirm if phosphorylation enrichment reported for the sequence CTNPRYLAAGS [RABL3_Y185] is 0.6 or above.
Result: F

Task: Quick check: does NGEDLYAGSTD [XRCC1_Y515_P514L] have phosphorylation enrichment greater than or equal to 0.6?
Result: F

Task: Entry VKKKLDEEIDQ [CYP17A1_Y329_Y329D] : is its phosphorylation enrichment no less than 0.6?
Result: F

Task: Please check the record VHVEVYDRPSP and state if its phosphorylation enrichment is at or above 0.6.
Result: F

Task: Hi, just wondering whether DMLYQYLKQIE [RPAP3_Y569] shows phosphorylation enrichment of 0.6 or higher.
Result: T

Task: Identify whether the reported phosphorylation enrichment of the following sequence is 0.6 or greater: VSRGRYRPEEC [B4GALT4_Y113_Q116E]
Result: F

Task: Could you tell me if the measured phosphorylation enrichment of INMKKYCKKDF [NTN1_Y490_YF] reaches 0.6 or more?
Result: F

Task: Check this sequence for phosphorylation enrichment at or above 0.6: KRLAVYQAGAR [APOE_Y180]
Result: F

Task: Given the entry LQLLGHRPVYS [CHST6_Y358_Y358H] , answer whether its phosphorylation enrichment meets or surpasses 0.6.
Result: F

Task: Please tell me: is the sequence MRALIYNSSTA [PLEKHA7_Y243] at or over 0.6 in terms of phosphorylation enrichment?
Result: F

Task: Quick check, phosphorylation enrichment >= 0.6? SQQTYYRVSNM [ABCD1_Y181]
Result: T

Task: Assess whether reported phosphorylation enrichment for EICTQYEAMAS [GFAP_Y242_R239C] sits at 0.6 or higher.
Result: F

Task: Hello, I need to know if NFRTTYVNANE [KCNH2_Y475] has measured phosphorylation enrichment not below 0.6. Thanks!
Result: F

Task: Exam item: decide whether the reported phosphorylation enrichment for MSRDVYSIDYY [NTRK2_Y702_T704I] is at least 0.6.
Result: T

Task: API: above_or_equal(metric=phosphorylation enrichment, cutoff=0.6) for item LDLSFYPTSSS [EMD_Y182_YF]
Result: T

Task: Reported phosphorylation enrichment reaches at least 0.6 for DLFRLYICVKE [ARID1B_Y1091_V1092I] ?
Result: F

Task: Evaluate TRFDEYLEVTK [MAP1A_Y2217_H2214Y_YF] : phosphorylation enrichment at minimum 0.6?
Result: T

Task: Determine whether measured phosphorylation enrichment meets or exceeds 0.6 for VTQEQYELFCE [CBL_Y368_YF]
Result: F

Task: Is it the case that TEQDPYNNIVR [MMUT_Y364] has phosphorylation enrichment reaching or exceeding 0.6?
Result: F

Task: For this sequence, is measured phosphorylation enrichment 0.6 or higher? GPGGDYAAMGA [ERBB3_Y1276]
Result: T

Task: Kindly determine if phosphorylation enrichment recorded for LGSNGYKKLLK [SEPSECS_Y334] is above or exactly 0.6.
Result: F

Task: Is it the case that IAKNPYDPPGR has phosphorylation enrichment reaching or exceeding 0.6?
Result: F

Task: Could you verify whether the entry GRQGIYTKNER [GPR143_Y231_E233K] shows phosphorylation enrichment of no less than 0.6?
Result: F

Task: Is phosphorylation enrichment for AKRKGYDMQVD [NEB_Y2770_R2773Q] at or above 0.6?
Result: F

Task: Please tell me: is the sequence KSDVMYTDWKK [ORM1_Y175_V174M] at or over 0.6 in terms of phosphorylation enrichment?
Result: F

Task: State whether the measured phosphorylation enrichment reaches 0.6, counting equality as reaching it, for TNYSLYLRSLE [MTM1_Y71_R69S]
Result: F

Task: Form field: phosphorylation enrichment at least 0.6? Entry: PGVNYYFQVSA
Result: T

Task: # bool: phosphorylation enrichment of THEVRYISAGQ [SLCO4A1_Y77_V78I] >= 0.6
Result: F

Task: I'd appreciate it if you could say whether CHKRTYKVTGL has phosphorylation enrichment at least equal to 0.6.
Result: F

Task: Confirm if phosphorylation enrichment reported for the sequence SSLMKYQQNVS [EGFEM1P_Y160_P157L] is 0.6 or above.
Result: F

Task: Determine whether this sequence has phosphorylation enrichment no lower than 0.6: VDEERYDIEAK [TNNI3_Y112]
Result: F

Task: Form field: phosphorylation enrichment at least 0.6? Entry: QHVPDYRQNGY [PCDHGA1_Y890_V894G]
Result: F

Task: Does the reported phosphorylation enrichment for RFLERDIYNRE [HLA-DPB1_Y57_Y57D] fall at or above the 0.6 mark?
Result: T

Task: Is the recorded value of phosphorylation enrichment equal to or greater than 0.6 for this sequence? PEFVVYKPQME [CCRL2_Y170]
Result: T

Task: Has GFVEDYRPPFY [ACVRL1_Y421_I417F] a recorded phosphorylation enrichment greater than or equal to 0.6?
Result: F
